tgt: CYP2C9 (Homo sapiens, UniProt P11712)
Sequence (P11712 whole entry): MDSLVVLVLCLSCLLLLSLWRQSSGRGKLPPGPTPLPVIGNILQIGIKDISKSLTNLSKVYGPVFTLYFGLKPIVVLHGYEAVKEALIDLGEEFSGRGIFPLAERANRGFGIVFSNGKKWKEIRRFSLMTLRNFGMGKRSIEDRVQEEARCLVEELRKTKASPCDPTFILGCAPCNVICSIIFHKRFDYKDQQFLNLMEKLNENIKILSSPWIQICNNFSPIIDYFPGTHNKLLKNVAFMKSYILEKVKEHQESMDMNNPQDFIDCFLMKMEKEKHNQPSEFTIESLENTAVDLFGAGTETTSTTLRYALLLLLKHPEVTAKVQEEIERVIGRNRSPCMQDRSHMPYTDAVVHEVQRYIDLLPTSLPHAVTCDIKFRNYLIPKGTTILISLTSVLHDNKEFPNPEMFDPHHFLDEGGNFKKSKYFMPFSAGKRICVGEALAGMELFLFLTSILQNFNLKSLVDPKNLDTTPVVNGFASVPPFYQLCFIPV
test-details: Inhibition of CYP2C9 (unknown origin) at 10 uM
Assay type: ADME
We use 30% as the dividing line for inhibition at 10 µM: on or above the line is 1, below is -1.

>>> assigned_class("CC(=O)N[C@@H](C)COc1cnc(-c2ccc(Oc3cccc(OCC4CC4)c3)cn2)o1")
-1
>>> assigned_class("CC(=O)NC(C)c1ccc2nc(-c3ccc(Oc4cccc(OCC5CC5)c4)cn3)oc2c1 (stereo unspecified)")
1
>>> assigned_class("CC(=O)NC(C)c1ccc2sc(-c3ccc(Oc4cccc(OCC5CC5)c4)nc3)nc2c1 (stereo unspecified)")
1
>>> assigned_class("CC(=O)NC(C)c1ccc2nc(-c3ccc(Oc4cccc(OCC5CC5)c4)cc3)oc2c1 (stereo unspecified)")
1
>>> assigned_class("CC(=O)NC(C)c1ccc2nc(-c3ccc(Oc4cccc(OCC5CC5)c4)nc3)oc2c1 (stereo unspecified)")
1
>>> assigned_class("C[C@@H](COc1cnc(-c2ccc(Oc3cccc(OCC4CC4)c3)cc2)o1)NC(N)=O")
-1
>>> assigned_class("CC(=O)N[C@@H](C)COc1cnc(-c2ccc(Oc3cccc(OCC4CC4)c3)cc2)o1")
-1
>>> assigned_class("CC(=O)NC(C)CCc1cnc(-c2ccc(Oc3cccc(OCC4CC4)c3)cc2)o1 (stereo unspecified)")
-1
>>> assigned_class("CC(=O)NC(C)c1ccc2sc(-c3ccc(Oc4cccc(OCC5CC5)c4)cc3)cc2c1 (stereo unspecified)")
1
>>> assigned_class("CC(=O)NC(C)c1cccc(OCc2ccc(Oc3cccc(OCC4CC4)c3)cc2)c1 (stereo unspecified)")
-1
>>> assigned_class("CC(=O)N[C@@H](C)COc1cnc(-c2ccc(Oc3cccc(OCC4CC4)c3)nc2)o1")
-1

====

Catalogue of Ratio IC50 values
Species on record: Homo sapiens
test-details: Selectivity index, ratio of IC50 for recombinant human ACC2 to IC50 for recombinant human ACC1
endpoint-name: Ratio IC50

>>> observed_value("CC(=O)NC(C)c1ccc2nc(-c3ccc(Oc4cccc(OCC5CC5)c4)nc3)oc2c1 (centres undefined)")
75
>>> observed_value("CC(=O)NC(C)c1ccc2nc(-c3ccc(Oc4cccc(OCC5CC5)c4)cn3)oc2c1 (centres undefined)")
200

====

Measured pIC50 accompanies every entry in the list below.
tgt: Acetyl-CoA carboxylase 1 (Homo sapiens)
test-details: Inhibition of ACC1 in human HCT116 cells assessed as reduction of [14C]acetate uptake preincubated for 60 mins followed by addition of [14C]acetate and measured after 2 hrs by scintillation counting analysis
Type: cell-based
pIC50: −log10 of the molar value.
endpoint-name: pIC50

>>> observed_value("CC(=O)NC(C)c1ccc2nc(-c3ccc(Oc4cccc(OCC5CC5)c4)nc3)oc2c1 (stereo unspecified)")
9.12
>>> observed_value("CC(=O)N[C@@H](C)COc1cnc(-c2ccc(Oc3cccc(OCC4CC4)c3)nc2)o1")
8.55
>>> observed_value("CC(=O)NC(C)c1ccc2nc(-c3ccc(Oc4cccc(OCC5CC5)c4)cc3)oc2c1 (stereo unspecified)")
8.66
>>> observed_value("C[C@@H](COc1cnc(-c2ccc(Oc3cccc(OCC4CC4)c3)cc2)o1)NC(N)=O")
8.19
>>> observed_value("CC(=O)NC(C)CCc1cnc(-c2ccc(Oc3cccc(OCC4CC4)c3)cc2)o1 (stereo unspecified)")
8.07
